Experiment: Inhibitory activity against IMP-1 metallo-beta-lactamase (MBL)
pIC50: −log10 of the molar value.
The threshold is inclusive: pIC50 of exactly 5 counts as 1; values below receive -1.

Tell me whether pIC50 is at least 5 here: "O=C(O)[C@@H](S)Cc1ccc(-c2ccccc2)cc1"
1

Tell me whether pIC50 is at least 5 here: "CC(=O)N[C@H](C)C(=O)S[C@H](Cc1ccc2oc3ccccc3c2c1)C(=O)O"
1

Tell me whether pIC50 is at least 5 here: "C[C@@H](NC(=O)c1ccccc1)C(=O)S[C@H](Cc1ccccc1)C(=O)O"
-1

Tell me whether pIC50 is at least 5 here: "C[C@@H](NC(=O)CNC(=O)c1ccccc1)C(=O)S[C@H](Cc1ccc(-c2ccccc2)cc1)C(=O)O"
-1

Tell me whether pIC50 is at least 5 here: "C[C@@H](NC(=O)CCC(=O)O)C(=O)S[C@H](Cc1ccc(-c2ccccc2)cc1)C(=O)O"
1

Tell me whether pIC50 is at least 5 here: "O=C(O)[C@H](S)Cc1ccccc1"
1

Tell me whether pIC50 is at least 5 here: "CC(=O)S[C@@H](Cc1ccccc1)C(=O)O"
-1

Tell me whether pIC50 is at least 5 here: "C[C@@H](NC(=O)CCc1ccccc1)C(=O)S[C@H](Cc1ccc(-c2ccccc2)cc1)C(=O)O"
-1

Tell me whether pIC50 is at least 5 here: "CC(=O)N[C@H](C)C(=O)S[C@H](Cc1ccccc1)C(=O)O"
-1

The measurements presented in this section are drawn from ChEMBL document CHEMBL1132104.
